# Lookup of reported inhibition at 10 µM keyed by entry
testedTarget: thrombin (Homo sapiens, UniProt P00734)
Construct: purchased Sigma Chem. Co. T-7009
assayMethodText: Inhibition of thrombin
Format: biochemical
runConditions: Table III; 10 uM; read-out: Thrombin % I @ 10 uM
Square brackets hold non-standard residues; d marks the D form. Peptide text beside a SMILES is read from it. * marks the point of attachment. 2Thi = N[C@@H](Cc1cccs1)C(=O)O; Ms = CS(=O)(=O)*
Report the value in % with no unit label.

Illustrative cases are given below, each with its answer.
# molecule, testedTarget, inhibition at 10 µM / %
rows = [
    ("CS(=O)(=O)N[C@H](Cc1ccccc1)C(=O)N[C@H](C=O)Cc1ccccc1 [Compound 70] (Ms-[dF]-Phe-aldehyde)", "thrombin (Homo sapiens, UniProt P00734)", 0),
    ("O=C[C@H](Cc1ccccc1)NC(=O)[C@@H](COCc1ccccc1)NS(=O)(=O)c1ccc(F)cc1 [Compound 46]", "thrombin (Homo sapiens, UniProt P00734)", 15),
]

Alright, here's another molecule for you.
Entry CS(=O)(=O)N[C@@H](Cc1cccs1)C(=O)N[C@H](C=O)Cc1ccccc1 [Compound 99] (Ms-[2Thi]-Phe-aldehyde) ; inhibition at 10 µM = 0

---

# Lookup of reported inhibition at 1 µM keyed by entry
testedTarget: cathepsin B (Homo sapiens, UniProt P07858)
Construct: purchased Calbiochem 219364
assayMethodText: Inhibition of cathepsin B
Type: biochemical
runConditions: Table III; 1 uM; read-out: Cat B % I @ 1 uM
Square brackets hold non-standard residues; d marks the D form. Peptide text beside a SMILES is read from it. * marks the point of attachment. dPhg = N[C@@H](C(=O)O)c1ccccc1; Ms = CS(=O)(=O)*
Report the value in % with no unit label.

Illustrative cases are given below, each with its answer.
# compound, inhibition at 1 µM [%]
measured = [
    ("CS(=O)(=O)N[C@@H](C(=O)N[C@H](C=O)Cc1ccccc1)c1ccccc1 [Compound 76] (Ms-[dPhg]-Phe-aldehyde)", 79),
    ("Cc1nn(C)c(Cl)c1S(=O)(=O)N[C@H](COCc1ccccc1)C(=O)N[C@H](C=O)Cc1ccccc1", 68),
]

Entry O=C[C@H](Cc1ccccc1)NC(=O)[C@@H](COCc1ccccc1)NS(=O)(=O)N1CCOCC1 ; inhibition at 1 µM = 98

---

# Lookup of reported inhibition at 10 µM keyed by entry
testedTarget: α-chymotrypsin (Bos taurus)
Construct: purchased Sigma Chem. Co. C-3142
assayMethodText: Inhibition of α-chymotrypsin
Assay type: biochemical
runConditions: Table III; 10 uM; read-out: Chymotrypsin % I @ 10 uM
Report the value in % with no unit label.

Entry CS(=O)(=O)N[C@H](COCc1ccccc1)C(=O)N[C@@H](Cc1ccccc1)C(O)OCc1ccccc1 (stereo partly shown) ; inhibition at 10 µM = 4

Entry O=C[C@H](Cc1ccccc1)NC(=O)[C@@H](COCc1ccccc1)NC(=O)OCc1ccccc1 ; inhibition at 10 µM = 10

Entry CCNC(=O)C(=O)[C@H](Cc1ccccc1)NC(=O)[C@@H](COCc1ccccc1)NS(C)(=O)=O ; inhibition at 10 µM = 2

---

testedTarget: thrombin (Homo sapiens, UniProt P00734)
Construct: purchased Sigma Chem. Co. T-7009
assayMethodText: Inhibition of thrombin
Assay type: biochemical
runConditions: Table III; 10 uM; read-out: Thrombin % I @ 10 uM
Square brackets hold non-standard residues; d marks the D form. Peptide text beside a SMILES is read from it. * marks the point of attachment. Tos = Cc1ccc(S(=O)(=O)*)cc1; Bn = c1ccc(C*)cc1; Ms = CS(=O)(=O)*
recordedEndpoint: inhibition at 10 µM (%)
Report the value in % with no unit label.

Illustrative cases are given below, each with its answer.
# compound, inhibition at 10 µM [%]
data = [
    ("CS(=O)(=O)N[C@H](COCc1ccccc1)C(=O)N[C@@H](Cc1ccccc1)C(O)CCc1ccccc1 (stereo partly shown)", 2),
    ("Cc1ccc(S(=O)(=O)N[C@H](Cc2ccccc2)C(=O)N[C@H](C=O)Cc2ccccc2)cc1 [Compound 61] (Tos-[dF]-Phe-aldehyde)", 0),
    ("CS(=O)(=O)N[C@H](C(=O)N[C@H](C=O)Cc1ccccc1)c1cccs1", 4),
]

Entry O=C[C@H](Cc1ccccc1)NC(=O)[C@@H](COCc1ccccc1)NS(=O)(=O)c1ccc2ccccc2c1 ; inhibition at 10 µM = 10

Entry O=C[C@H](Cc1ccccc1)NC(=O)[C@@H](COCc1ccccc1)NS(=O)(=O)N1CCOCC1 ; inhibition at 10 µM = 0

Entry CC(C)C[C@@H](C=O)NC(=O)[C@@H](COCc1ccccc1)NS(C)(=O)=O [Compound 88] (Ms-[dS](Bn)-Leu-aldehyde) ; inhibition at 10 µM = 5

Entry O=C[C@H](Cc1ccccc1)NC(=O)[C@@H](Cc1c[nH]c2ccccc12)NS(=O)(=O)c1ccccc1 ; inhibition at 10 µM = 11

Entry CS(=O)(=O)N[C@H](COCc1ccccc1)C(=O)N[C@H](C=[N+]([O-])Cc1ccccc1)Cc1ccccc1 ; inhibition at 10 µM = 0

Entry CS(=O)(=O)N1CCC[C@@H]1C(=O)N[C@H](C=O)Cc1ccccc1 [Compound 101] (Ms-[dP]-Phe-aldehyde) ; inhibition at 10 µM = 0

Entry O=C[C@H](Cc1ccccc1)NC(=O)[C@@H](COCc1ccccc1)N1C(=O)c2ccccc2C1=O ; inhibition at 10 µM = 0

All values here come from patent US5852007A.
